Source of measurements: patent US20230150974A1

Target: HiBiT-BRM (Homo sapiens)
Construct: expressed in transfected cells
Sequence (P51531 whole entry): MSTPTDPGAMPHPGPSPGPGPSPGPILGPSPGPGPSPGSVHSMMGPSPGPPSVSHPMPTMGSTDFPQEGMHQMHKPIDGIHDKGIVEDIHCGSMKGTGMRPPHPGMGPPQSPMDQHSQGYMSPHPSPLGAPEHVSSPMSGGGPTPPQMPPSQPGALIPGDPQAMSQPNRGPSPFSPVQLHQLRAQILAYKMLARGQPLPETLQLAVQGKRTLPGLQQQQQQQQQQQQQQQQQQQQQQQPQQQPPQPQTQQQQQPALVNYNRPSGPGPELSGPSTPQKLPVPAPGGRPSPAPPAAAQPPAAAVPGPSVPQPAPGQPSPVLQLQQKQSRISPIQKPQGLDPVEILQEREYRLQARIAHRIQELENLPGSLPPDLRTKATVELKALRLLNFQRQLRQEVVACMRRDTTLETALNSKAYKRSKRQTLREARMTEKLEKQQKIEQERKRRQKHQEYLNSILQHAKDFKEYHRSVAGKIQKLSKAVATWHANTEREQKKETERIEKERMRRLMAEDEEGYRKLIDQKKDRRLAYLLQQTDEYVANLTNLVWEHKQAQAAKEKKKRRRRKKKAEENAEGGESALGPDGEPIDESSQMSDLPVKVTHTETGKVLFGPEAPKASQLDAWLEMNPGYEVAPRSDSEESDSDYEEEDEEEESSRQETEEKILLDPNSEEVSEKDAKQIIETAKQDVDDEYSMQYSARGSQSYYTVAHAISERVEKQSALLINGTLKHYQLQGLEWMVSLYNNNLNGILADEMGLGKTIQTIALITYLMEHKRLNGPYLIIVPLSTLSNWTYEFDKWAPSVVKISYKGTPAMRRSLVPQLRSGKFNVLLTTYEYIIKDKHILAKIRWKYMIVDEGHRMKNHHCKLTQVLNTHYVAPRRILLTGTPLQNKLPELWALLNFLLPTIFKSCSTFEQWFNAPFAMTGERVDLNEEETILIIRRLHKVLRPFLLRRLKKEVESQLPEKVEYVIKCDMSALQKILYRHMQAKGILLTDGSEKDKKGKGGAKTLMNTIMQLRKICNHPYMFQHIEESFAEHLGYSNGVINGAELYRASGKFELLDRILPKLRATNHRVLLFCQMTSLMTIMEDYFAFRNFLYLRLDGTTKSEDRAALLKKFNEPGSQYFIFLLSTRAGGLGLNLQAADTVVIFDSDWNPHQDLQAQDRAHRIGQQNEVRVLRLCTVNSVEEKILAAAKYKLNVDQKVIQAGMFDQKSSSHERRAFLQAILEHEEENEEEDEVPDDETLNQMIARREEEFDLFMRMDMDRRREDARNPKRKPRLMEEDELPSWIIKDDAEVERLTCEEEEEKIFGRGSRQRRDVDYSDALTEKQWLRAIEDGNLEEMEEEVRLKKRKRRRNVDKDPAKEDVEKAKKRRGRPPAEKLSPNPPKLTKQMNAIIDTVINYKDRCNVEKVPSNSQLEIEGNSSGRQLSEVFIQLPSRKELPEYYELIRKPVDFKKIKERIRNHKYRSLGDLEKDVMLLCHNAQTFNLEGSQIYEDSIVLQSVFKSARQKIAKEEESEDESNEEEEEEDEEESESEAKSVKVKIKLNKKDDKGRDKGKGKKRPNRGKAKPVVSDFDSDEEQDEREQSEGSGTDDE
Experiment: HiBiT-BRM cell-based degradation assay (Nano-Glo HiBiT Lytic Detection)
Details: HeLa cells expressing HiBiT-BRM, 24 h; read-out: BRM HiBit Degradation IC50
Quick list: DC50 per entry.
quantity.name: DC50

{"compound": "Nc1nnc(-c2ccccc2O)cc1OCCc1ccc(C(=O)NCCCCCOc2cccc3c2C(=O)N(C2CCC(=O)NC2=O)C3=O)cc1 (stereo not drawn)", "quantity.name": "DC50", "result": "> 100 nM"}
{"compound": "Nc1nnc(-c2ccccc2O)cc1OCCc1ccc(CNC(=O)CCCCOc2cccc3c2C(=O)N(C2CCC(=O)NC2=O)C3=O)cc1 (stereo not drawn)", "quantity.name": "DC50", "result": "> 100 nM"}
{"compound": "Nc1nnc(-c2ccccc2O)cc1N1CCN(CCNC(=O)CCCCCCCCNc2ccc3c(c2)C(=O)N(C2CCC(=O)NC2=O)C3=O)CC1 (stereo not drawn)", "quantity.name": "DC50", "result": "> 1000 nM"}
{"compound": "Cc1ncsc1-c1ccc(CNC(=O)[C@@H]2C[C@@H](O)CN2C(=O)[C@@H](NC(=O)CCCCCCCCCC(=O)NCc2ccc(CCOc3cc(-c4ccccc4O)nnc3N)cc2)C(C)(C)C)cc1", "quantity.name": "DC50", "result": "> 100 nM"}
{"compound": "Nc1nnc(-c2ccccc2O)cc1OCCc1ccc(CNCCCC2CN(c3cccc4c3C(=O)N(C3CCC(=O)NC3=O)C4=O)C2)cc1 (stereo not drawn)", "quantity.name": "DC50", "result": "> 10 nM"}
{"compound": "Cc1ncsc1-c1ccc(CNC(=O)[C@@H]2C[C@@H](O)CN2C(=O)[C@@H](NC(=O)CCCCCCCCCCCCCCCC(=O)NCc2ccc(CCNc3cc(-c4ccccc4O)nnc3N)cc2)C(C)(C)C)cc1", "quantity.name": "DC50", "result": "> 100 nM"}
